system: SK-MEL-5 melanoma; assay: NCI-60 one-dose screen, 48 h (100 = growth as untreated, 0 = no growth, -100 = all killed); details: 10 µM unless noted
About 83,000 compounds went through this panel and 20% of them were active in at least one assay; those are over-represented in the sample as a whole.
Listed here are compounds together with their documented growth.
Give the value, in units of %, as a plain number.

Some entries whose results are on file:
chemical_smiles=Cc1ccc2c(n1)C(=O)C(Cl)=C(Nc1ccc(C(C)C)cc1)C2=O result_number=37.3
chemical_smiles=CC1CCN(CC(=O)Nn2c(COc3ccccc3)nc3ccccc3c2=O)CC1 result_number=82.9
chemical_smiles=NC(N)=NS(=O)(=O)c1ccc(N=Nc2c(N)nn(-c3ccc([N+](=O)[O-])cc3[N+](=O)[O-])c2N)cc1 result_number=99

Would you mind telling me what growth value was observed for COC(=O)c1ccc(NC2=C(Cl)C(=O)c3nc(C)ccc3C2=O)cc1 ?
68.4

Then CCc1cc(OC(=O)N2CCN(CCC(C)(COC(C)(C)C)COC(C)(C)C)CC2)ccc1Nc1cc(-c2ccc(-n3cccn3)cc2)[nH]n1 ?
90.8

Then C#CCOc1ccccc1/C=N/Nc1nc(-c2ccc(Cl)cc2)cs1 ?
98.3

Then COc1ccc(NC2=C(Br)C(=O)C(C)=C(C)C2=O)cc1OC ?
69.7

Then O=C(CSc1nc2ccccc2c(=O)n1CCc1ccccc1)Nc1ccc(S(=O)(=O)Nc2ccc(Cl)nn2)cc1 ?
98.6

Then CCCCCc1ccc(S(=O)(=O)Nc2cc(-c3csc(N)n3)ccc2OC)cc1 ?
84.8

====

tested on: OVCAR-5 ovarian; experiment: NCI-60 one-dose screen, 48 h (100 = growth as untreated, 0 = no growth, -100 = all killed); settings: 10 µM unless noted
About 83,000 compounds went through this panel and 20% of them were active in at least one assay; those are over-represented in the sample as a whole.
Listed here are compounds together with their documented growth.
Give the value, in units of %, as a plain number.

Some entries whose results are on file:
compound=N#Cc1c(-c2ccc(F)cc2)cc(-c2c[nH]c3ccccc23)nc1-c1c[nH]c2ccccc12 system="OVCAR-5 ovarian" result_number=109
compound=Brc1cc(-c2cc(-c3ccc4c(c3)OC=CO4)[nH]n2)cs1 system="OVCAR-5 ovarian" result_number=115
compound="CC[C@]12C=CCN3CC[C@]4(C(=C(C(=O)OC)C1)Nc1cc5c(cc14)[C@@H]1[C@H](O5)[C@@H](O)[C@@]4(CC)CC(C(=O)OC)=C5Nc6cc(O)ccc6[C@@]56CCN1C46)C32 (some centres undefined)" system="OVCAR-5 ovarian" result_number=20.7
compound="CC(Nc1ncnc2ccc(-c3cnc4cnccn34)cc12)c1ccccc1 (centres undefined)" system="OVCAR-5 ovarian" result_number=68.2
compound=CNC(=O)Nc1ccc(Nc2cc(-c3ccc(-n4cccn4)cc3)[nH]n2)c(C)c1 system="OVCAR-5 ovarian" result_number=111
compound=Cc1csc(/N=C(N)/N=C(\N)c2cccc(Br)c2)n1 system="OVCAR-5 ovarian" result_number=102
compound=O=C(CCCCCCN1CC(=O)N2[C@@H](c3ccccc3Br)c3[nH]c4ccccc4c3C[C@H]2C1=O)NO system="OVCAR-5 ovarian" result_number=50.9
compound=Nc1nc(=O)n([C@H]2C[C@H](O)[C@@H](CO)O2)cc1C=O system="OVCAR-5 ovarian" result_number=94.2
compound=CC(C)(C)OC(=O)Nc1ccc(-c2cccc(Oc3ccc4nnc(Cl)n4n3)c2)cc1 system="OVCAR-5 ovarian" result_number=100
compound=CCC(=C(c1ccc(OCCN2CCCCCC2)cc1)c1ccc(OCCN2CCCCCC2)cc1)c1ccc(Cl)cc1 system="OVCAR-5 ovarian" result_number=58.3

Would you mind telling me what growth value was observed for O=C(N/N=C\c1ccc([N+](=O)[O-])cc1)c1ccc2nc(-c3ccc(Br)cc3)[nH]c2c1 ?
44.8

Then CC1CC(=O)C2=C(C1)Nc1ccc(Br)cc1CC2c1c[nH]c2ccc(Br)cc12 (centres undefined) ?
82
